B1: Nuclear receptor subfamily 4 group A member 2, residues 260 to 336; numbered along this chain, P43354 (parent)
chain: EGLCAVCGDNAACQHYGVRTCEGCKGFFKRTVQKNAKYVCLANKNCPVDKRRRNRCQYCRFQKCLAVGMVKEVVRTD

Variants of: B1
EXPERIMENT NOTES: abundance fitness (aPCA) (normalised: wild type 0, dead -1); higher = more abundant; growth selection in yeast, the domain comes from the species named
CONDITION CONTEXT: Homo sapiens
Assign class by abundance fitness: not lower than -0.1 means t; lower than -0.1 means f.

These recorded examples may help you get a feel for the data.
>>> label("R19Q")
"t"
>>> label("C4R")
"f"
>>> label("K25R")
"t"
>>> label("R52C")
"t"

In: Hello, I need to know if F27Y has measured abundance fitness not below -0.1. Thanks!
Out: f

In: Hello, I need to know if V39Y has measured abundance fitness not below -0.1. Thanks!
Out: f

In: Hello, I need to know if A36P has measured abundance fitness not below -0.1. Thanks!
Out: t

In: Hello, I need to know if K37F has measured abundance fitness not below -0.1. Thanks!
Out: f

In: Hello, I need to know if R52A has measured abundance fitness not below -0.1. Thanks!
Out: t

In: Hello, I need to know if Y58F has measured abundance fitness not below -0.1. Thanks!
Out: t

In: Hello, I need to know if V70P has measured abundance fitness not below -0.1. Thanks!
Out: f

In: Hello, I need to know if E72F has measured abundance fitness not below -0.1. Thanks!
Out: f

In: Hello, I need to know if N54W has measured abundance fitness not below -0.1. Thanks!
Out: t
